Listed below: processed/unprocessed PreF trimer binding ratio values for each entry.
target: T1, Processed stabilized hMPV PreF trimer (115BV) (human metapneumovirus, strain B2); assay: BLI, ratio to unprocessed PreF trimer
T1 construct: also called Processed hMPV PreF trimer; processed PreF
// return just the number, without any unit appended

Below are worked cases with known answers.
* M3A01 (antibody, V domains shown, IgG) VH: EVQLVESGGGLVKPGGSLRLSCSVSAFSISGYNMHWVRQAPGKGLEWVSSITGGSNYINYADSVKGRFTISRDNAQNSLYLQMKSLRAEDTAVYYCARETQPSPGSFDSWGQGTLVTVSS VL: QSVLTQPPSVSGAPGQRVTISCTGSSSNIGAGYDVNWYQQLPGTAPKLLIYGNYNRPSGVPDRFSASKSGTSASLAITGLQAEDEADYWCQSYDTSLSGWIFGGGTKLTVL | 1.04
* M2B12 (antibody, V domains shown, IgG) VH: QVQLVESGGGVVQPGRSLRLSCEASGFTFSSSAMHWVRQAPGKGLEWVAIISYHGTNKDYSDSVRGRFTISRDNSKNTLYLQMNGLRGDDTAVYYCAKEAAVSGNFDSWGQGTMVTVSS VL: QLVLTQSPSASASLGASVKLTCTLISGPSNYAIAWHRQQPQKGPRYLMKVNSDGSHTKGDGIPDRFSGSSSGTERYLIISNLQSEDEADYYCQTWGSGIYVFGPGTKVTVL | 1.16

Lookup: What does the record list as processed/unprocessed PreF trimer binding ratio for M2C06 (antibody, V domains shown, IgG) VH: QVQLVQSGAEVKKPGSSVKVSCRPSGGTFSNDILSWVRQAPGQRLEWMGRIIPLVNMTNIAQKFQGRLTLVADKSTAIVHLELGSLRAEDTAIYYCVRDLPSAGFPAPFDIWGQGTRVTVSA VL: EIVLTQSPGSLSLSPGARATVSCRASQSLNSASLVWYQQRVGQAPRLLMFGASNRATGIPDRFSGSGSGTDFTLTISRLEPEDFAVYYCQQYAFSPPTFGQGTKVEIK ?
Found: 1.16
